Reported IC50 values follow for various binders
- assay-system: T1, human IL12Rβ1 extracellular domain Fc-fusion (human, UniProt P42701 24-545)
- T1 construct: extracellular domain; bought; also called IL12Rβ1-Fc; hIL-12Rβ1-Fc; not shown: Fc part, captured by anti-hIgG
- experimental-protocol: competition ELISA, coated IL-12 + IL12Rβ1-Fc
Hey, just the number and the unit after it is fine.

Example entries begin here.
CD4#8-35GS-IL12Rb1#30 (bispecific antibody, also called BI#40; T023200040) EVQLVESGGGSVQPGGSLTLSCGTSGRTFNVMGWFRQAPGKEREFVAAVRWSSTGIYYTQYADSVKSRFTISRDNAKNTVYLEMNSLKPEDTAVYYCAADTYNSNPARWDGYDFRGQGTLVTVSSGGGGSGGGGSGGGGSGGGGSGGGGSGGGGSGGGGSEVQLVESGGGLVQTGGSLRLSCAASGRTPRLVAMGWFRQTPGKEREFVGEIILSKGFTYYADSVKGRFTISRVNAKNTITMYLQMNSLKSEDTAVYYCAGRQNWSGSPARTNEYEYWGQGTLVTVSS | 7.3 nM
IL12Rb1#30-35GS-CD4#8 (bispecific antibody, also called BI#46; T023200046) EVQLVESGGGLVQTGGSLRLSCAASGRTPRLVAMGWFRQTPGKEREFVGEIILSKGFTYYADSVKGRFTISRVNAKNTITMYLQMNSLKSEDTAVYYCAGRQNWSGSPARTNEYEYWGQGTLVTVSSGGGGSGGGGSGGGGSGGGGSGGGGSGGGGSGGGGSEVQLVESGGGSVQPGGSLTLSCGTSGRTFNVMGWFRQAPGKEREFVAAVRWSSTGIYYTQYADSVKSRFTISRDNAKNTVYLEMNSLKPEDTAVYYCAADTYNSNPARWDGYDFRGQGTLVTVSS | 6.2 nM

Now for a further binder.
get_value(item= IL12Rb1#31: 148F09 (VHH, also called IL12Rβ1#31; LG148F09) VHH: EVQLVESGGGLVQTGGSLRLSCAASGRTPSIIAMGWFRQTPGKEREFVGEIILSKGFTYYADSVKGRFTISRANAKNTITMYLQMNSLKSEDTAVYYCAARQNWSGNPTRTNEYEYWGQGTLVTVSS , readout=IC50) returns 22 nM
